FYI, the data here is from PubChem BioAssay AID372.

target: Gag-Pol polyprotein (Human immunodeficiency virus type 1 group M subtype B (isolate HXB2)); experiment: RNase H inhibition, HIV 1 Gag Pol polyprotein, FRET biochemical assay, screening (AID 372); conditions: HIV-1 RT RNase H, FRET RNA/DNA substrate fluorescence; at 10 µM
Among all 100,000 compounds or so, about 770 (0.77%) were called active. Cut-off read from the data, not from the text of the source: active = inhibition above about 50%; inactive = the rest. The sample as a whole holds a higher share of actives than the screen did.
Labels: label 1 (active), label 0 (inactive)

# compound, class
data = [
    ("O=C(COc1ccccc1Cl)Nc1cccc(S(=O)(=O)c2cccc(NC(=O)COc3ccccc3Cl)c2)c1", "label 1"),
    ("COc1ccc(/C=C2\\SC(=S)N(CCC(=O)Nc3cc(Cl)ccc3O)C2=O)cc1", "label 1"),
    ("O=C(CSc1nc2ccc(N3C(=O)c4ccccc4C3=O)cc2s1)c1ccc(F)cc1", "label 0"),
    ("COc1ccc(N2C(=O)/C(=C\\c3cc(OC)ccc3O)SC2=S)cc1", "label 0"),
    ("Cc1ccc(/C=C2/SC(=S)N(CCCC(=O)Nc3cc(Cl)ccc3O)C2=O)cc1", "label 0"),
    ("NC(=O)N/N=C/c1ccccc1OS(=O)(=O)c1ccc([N+](=O)[O-])cc1", "label 0"),
    ("Cc1c(C(=O)O)cccc1-n1c(C)ccc1C", "label 1"),
    ("Cc1ccccc1/C=C(/C#N)c1ccc([N+](=O)[O-])cc1", "label 0"),
    ("Cc1cccc(NC(=O)C(=O)NNC(=O)c2ccccc2C)c1", "label 0"),
    ("O=C(CSc1nc2ccc(N3C(=O)c4ccccc4C3=O)cc2s1)c1ccccc1", "label 0"),
    ("CCCCNCCCCCCOc1ccc(Cl)cc1Cl", "label 0"),
    ("O=C(/C=C/c1ccco1)Nc1ccc2oc(-c3ccccc3)nc2c1", "label 0"),
    ("CCCCNCCCOc1cc(Cl)ccc1Cl", "label 1"),
    ("Cc1cc(C)cc(NC(=O)Cc2ccccc2)c1", "label 0"),
    ("O=C1/C(=C/c2cccs2)SC(=S)N1CCCC(=O)N(Cc1ccccc1)c1ccccc1", "label 1"),
    ("Cc1ccccc1OCC(=O)Nc1ccc2nn(-c3ccccc3)nc2c1", "label 0"),
    ("O=C(CSc1nc2ccc(N3C(=O)c4ccccc4C3=O)cc2s1)Nc1ccc(Br)cc1", "label 0"),
    ("Cc1ccc(C)n1-c1ccccc1C(=O)O", "label 0"),
    ("O=C(CSc1nc2ccc(N3C(=O)c4ccccc4C3=O)cc2s1)c1ccc(Cl)cc1", "label 1"),
    ("CCCC(=O)Nc1ccc(N2CCOCC2)c(Cl)c1", "label 0"),
    ("COc1ccc(-n2nc3ccc(NC(=O)COc4ccccc4Cl)cc3n2)cc1", "label 0"),
    ("CC(C)(C)N(Cc1ccccc1)C(=O)CCCN1C(=O)/C(=C/c2cccs2)SC1=S", "label 0"),
    ("Cc1cccc(N2C(=O)C(Cl)=C(Cl)C2=O)c1C", "label 0"),
    ("CCC(C)c1ccc(NC(=S)NC(=O)c2ccc(OC)c(Br)c2)cc1 (centres undefined)", "label 0"),
    ("O=C(N/N=C/c1ccc(I)cc1)C1CC(=O)N(c2ccccc2)C1 (centres undefined)", "label 0"),
    ("COC(=O)C1=C(C)N(Cc2ccccc2)C(=O)/C1=C\\c1ccccc1Cl", "label 1"),
    ("N#C/C(=C/c1ccccc1OCc1ccccc1F)c1ccc([N+](=O)[O-])cc1", "label 1"),
    ("Ic1ccc(Nc2nc3ccccc3nc2Nc2ccc(I)cc2)cc1", "label 0"),
    ("O=C(Nc1ccccc1C#Cc1ccccc1)c1ccc(-c2ccccc2)cc1", "label 0"),
    ("Cc1ccc(-c2c3c([nH]c(=S)c2C#N)CCCC3)o1", "label 0"),
    ("C=CCOCCN(CCOCC=C)C1=NS(=O)(=O)c2cc([N+](=O)[O-])ccc21", "label 0"),
    ("C=CCc1ccccc1OCCOc1ccc(Br)cc1/C=C(\\C#N)C(N)=O", "label 1"),
    ("CCc1ccc(NC(=O)C(CC)c2ccccc2)cc1 (centres undefined)", "label 0"),
    ("N#C/C(=C\\c1cc(Br)ccc1OCc1cccc2ccccc12)C(N)=O", "label 0"),
    ("COC(=O)C1=C(C)N(Cc2ccccc2)C(=O)/C1=C\\c1c(Cl)cccc1Cl", "label 0"),
    ("Cc1ccc(/C=C2\\SC(=S)N(CCC(=O)Nc3ccc(Cl)cc3)C2=O)cc1", "label 0"),
    ("Cc1cc2nc(-c3ccc(NC(=O)/C=C/c4ccco4)cc3)oc2cc1C", "label 1"),
    ("COc1ccc(-n2nc3cc(C)c(NC(=O)c4ccc(-c5ccc([N+](=O)[O-])cc5OC)o4)cc3n2)cc1", "label 1"),
    ("CCN1C(=O)NC(c2ccc(Br)cc2)C(C(=O)OCCOC)=C1C (centres undefined)", "label 0"),
    ("O=C(Cc1ccccc1)Nc1ccc2nn(-c3ccc(Cl)cc3)nc2c1", "label 0"),
    ("O=C(/C=C/c1ccco1)Nc1ccc2nn(-c3ccc(Cl)cc3)nc2c1", "label 1"),
    ("N#Cc1c(N)c(C#N)c(-c2ccco2)c2c1CCCC2", "label 0"),
    ("Cc1ccc(C)n1-c1ccc(C(=O)O)cc1O", "label 0"),
    ("Cc1ccc(S(=O)(=O)/N=C2/C=C(Br)C(=O)c3ccccc32)cc1", "label 0"),
]
